The values you see were collected from BigSolDB 2.1.

Conditions: in isopropyl acetate, 283.15 K
parameter measured: solubility (mole fraction)
Field format: numeric only.

What does the data say about its solubility (mole fraction)? Entry: CC1(C)CC(NCCCCCCNC2CC(C)(C)NC(C)(C)C2)CC(C)(C)N1
0.0736

----------
Settings: in isopropyl acetate, 298.15 K
parameter measured: solubility (mole fraction)
Field format: numeric only.

What does the data say about its solubility (mole fraction)? Entry: CC1(C)CC(NCCCCCCNC2CC(C)(C)NC(C)(C)C2)CC(C)(C)N1
0.165

----------
Conditions: in n-propyl acetate, 288.15 K
parameter measured: solubility (mole fraction)
Field format: numeric only.

What does the data say about its solubility (mole fraction)? Entry: CC1(C)CC(NCCCCCCNC2CC(C)(C)NC(C)(C)C2)CC(C)(C)N1
0.084

----------
Conditions: in isobutyl acetate, 278.15 K
parameter measured: solubility (mole fraction)
Field format: numeric only.

What does the data say about its solubility (mole fraction)? Entry: CC1(C)CC(NCCCCCCNC2CC(C)(C)NC(C)(C)C2)CC(C)(C)N1
0.0625

----------
Conditions: in acetone, 278.15 K
parameter measured: solubility (mole fraction)
Field format: numeric only.

What does the data say about its solubility (mole fraction)? Entry: CC1(C)CC(NCCCCCCNC2CC(C)(C)NC(C)(C)C2)CC(C)(C)N1
0.013

----------
Details: in ethyl acetate, 288.15 K
parameter measured: solubility (mole fraction)
Field format: numeric only.

What does the data say about its solubility (mole fraction)? Entry: CC1(C)CC(NCCCCCCNC2CC(C)(C)NC(C)(C)C2)CC(C)(C)N1
0.0776

----------
Settings: in acetone, 288.15 K
parameter measured: solubility (mole fraction)
Field format: numeric only.

What does the data say about its solubility (mole fraction)? Entry: CC1(C)CC(NCCCCCCNC2CC(C)(C)NC(C)(C)C2)CC(C)(C)N1
0.029

----------
Settings: in isopropyl acetate, 303.15 K
parameter measured: solubility (mole fraction)
Field format: numeric only.

What does the data say about its solubility (mole fraction)? Entry: CC1(C)CC(NCCCCCCNC2CC(C)(C)NC(C)(C)C2)CC(C)(C)N1
0.212

----------
Conditions: in isopropyl acetate, 293.15 K
parameter measured: solubility (mole fraction)
Field format: numeric only.

What does the data say about its solubility (mole fraction)? Entry: CC1(C)CC(NCCCCCCNC2CC(C)(C)NC(C)(C)C2)CC(C)(C)N1
0.128

----------
Settings: in acetone, 293.15 K
parameter measured: solubility (mole fraction)
Field format: numeric only.

What does the data say about its solubility (mole fraction)? Entry: CC1(C)CC(NCCCCCCNC2CC(C)(C)NC(C)(C)C2)CC(C)(C)N1
0.0467

----------
Details: in ethyl acetate, 283.15 K
parameter measured: solubility (mole fraction)

What does the data say about its solubility (mole fraction)? Entry: CC1(C)CC(NCCCCCCNC2CC(C)(C)NC(C)(C)C2)CC(C)(C)N1
0.056

----------
Conditions: in isobutyl acetate, 298.15 K
parameter measured: solubility (mole fraction)
Field format: numeric only.

What does the data say about its solubility (mole fraction)? Entry: CC1(C)CC(NCCCCCCNC2CC(C)(C)NC(C)(C)C2)CC(C)(C)N1
0.178
